Measured values drawn from patent US11318157B2 for this set.

Assign IC50 to each entry below.
Target Or System: PRMT5-MEP50 enzyme (Homo sapiens, UniProt O14744)
Construct: One virus expresses full length human PRMT5 with Flag-tag at N-terminus; Flag (N); purchased Charles River (Argenta); host or cells: insect cells (Sf9), baculovirus co-infection
Sequence (O14744 whole entry): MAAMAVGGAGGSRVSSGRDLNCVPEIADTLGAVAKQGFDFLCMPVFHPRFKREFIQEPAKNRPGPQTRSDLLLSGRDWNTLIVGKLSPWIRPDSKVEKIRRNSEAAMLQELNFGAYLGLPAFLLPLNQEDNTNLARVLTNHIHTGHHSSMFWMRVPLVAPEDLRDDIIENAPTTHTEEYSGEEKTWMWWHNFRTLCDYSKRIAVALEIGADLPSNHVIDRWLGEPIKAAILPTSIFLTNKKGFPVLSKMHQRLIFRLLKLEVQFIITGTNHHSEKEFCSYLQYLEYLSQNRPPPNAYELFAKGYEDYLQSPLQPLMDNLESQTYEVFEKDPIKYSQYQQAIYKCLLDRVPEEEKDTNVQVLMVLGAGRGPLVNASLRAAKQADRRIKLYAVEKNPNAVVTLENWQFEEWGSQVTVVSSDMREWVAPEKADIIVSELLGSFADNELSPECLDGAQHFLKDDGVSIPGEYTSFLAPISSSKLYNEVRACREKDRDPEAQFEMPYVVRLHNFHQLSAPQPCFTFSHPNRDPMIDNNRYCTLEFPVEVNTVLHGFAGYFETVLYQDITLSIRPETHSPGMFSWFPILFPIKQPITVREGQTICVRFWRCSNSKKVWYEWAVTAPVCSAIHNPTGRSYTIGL
Sequence (Q9BQA1 whole entry partner): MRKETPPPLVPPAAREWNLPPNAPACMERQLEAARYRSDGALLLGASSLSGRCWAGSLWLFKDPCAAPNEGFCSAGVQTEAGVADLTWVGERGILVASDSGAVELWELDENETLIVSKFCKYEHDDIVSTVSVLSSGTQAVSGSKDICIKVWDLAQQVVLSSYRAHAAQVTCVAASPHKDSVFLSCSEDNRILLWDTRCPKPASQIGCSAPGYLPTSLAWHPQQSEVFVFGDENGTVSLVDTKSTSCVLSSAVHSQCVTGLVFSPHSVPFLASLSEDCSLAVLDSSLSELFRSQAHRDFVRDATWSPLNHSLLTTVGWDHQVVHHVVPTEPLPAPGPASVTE
Assay Summary: In vitro assay 1a: high throughput mass spectrometer assay of SAH formation, 10 nM enzyme, 60 min
Type: biochemical
Condition Parameters: averaged values, PRMT5-MEP50, 10 nM enzyme, read-out: pIC50 Assay 1a (converted)
Field format: number, assumed nM, no unit text.

Return IC50 measured with PRMT5-MEP50 enzyme (Homo sapiens, UniProt O14744) given this compound: COC(=O)c1cnc2cc(OC[C@H]3O[C@@H](n4ccc5c(N)ncnc54)[C@H](O)[C@@H]3O)ccc2c1 [Compound 105]
158

Same question, Nc1ccc2ccc(CC[C@H]3C[C@@H](n4ccc5c(Cl)ncnc54)[C@H](O)[C@@H]3O)cc2n1 [Compound 110] this time
2

Also COc1cc2c(N)c(C#N)cnc2cc1OC[C@H]1O[C@@H](n2ccc3c(N)ncnc32)[C@H](O)[C@@H]1O [Compound 31] , if possible.
3160

Another: Nc1ncnc2c1ccn2[C@@H]1O[C@H](COc2ccc3nccnc3c2)[C@@H](O)[C@H]1O [Compound 15]
1000
